molecular target: 5-hydroxytryptamine receptor 2B (Homo sapiens, UniProt P41595); assay: Selectivity interaction (Enzyme panel (kinases, GPCRs, ion channels, transporters)) EUB0000197b HTR2B
Sequence (P41595 whole entry): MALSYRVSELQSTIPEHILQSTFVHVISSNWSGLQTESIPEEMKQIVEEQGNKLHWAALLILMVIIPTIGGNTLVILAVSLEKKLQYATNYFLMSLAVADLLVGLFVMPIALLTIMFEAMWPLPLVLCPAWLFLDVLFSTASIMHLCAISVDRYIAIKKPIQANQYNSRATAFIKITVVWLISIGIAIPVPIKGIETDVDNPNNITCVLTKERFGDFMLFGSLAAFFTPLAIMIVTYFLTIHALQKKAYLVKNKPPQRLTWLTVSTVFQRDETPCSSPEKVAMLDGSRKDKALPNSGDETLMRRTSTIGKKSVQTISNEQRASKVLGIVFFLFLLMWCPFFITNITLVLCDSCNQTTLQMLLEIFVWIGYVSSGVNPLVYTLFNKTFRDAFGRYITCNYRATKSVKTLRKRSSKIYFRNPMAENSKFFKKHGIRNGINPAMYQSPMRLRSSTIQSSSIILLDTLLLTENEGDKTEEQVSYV
pKi: −log10 of the molar value.
property: pKi

Lab entry: 5-hydroxytryptamine receptor 2B (Homo sapiens, UniProt P41595) assay, molecule O=C(NCC(=O)N1CCCC1)Nc1ccc2cnccc2c1 , pKi = < 4.82

* * *

target: Insulin receptor (Homo sapiens, UniProt P06213)
Sequence (P06213 28-758 limits assumed): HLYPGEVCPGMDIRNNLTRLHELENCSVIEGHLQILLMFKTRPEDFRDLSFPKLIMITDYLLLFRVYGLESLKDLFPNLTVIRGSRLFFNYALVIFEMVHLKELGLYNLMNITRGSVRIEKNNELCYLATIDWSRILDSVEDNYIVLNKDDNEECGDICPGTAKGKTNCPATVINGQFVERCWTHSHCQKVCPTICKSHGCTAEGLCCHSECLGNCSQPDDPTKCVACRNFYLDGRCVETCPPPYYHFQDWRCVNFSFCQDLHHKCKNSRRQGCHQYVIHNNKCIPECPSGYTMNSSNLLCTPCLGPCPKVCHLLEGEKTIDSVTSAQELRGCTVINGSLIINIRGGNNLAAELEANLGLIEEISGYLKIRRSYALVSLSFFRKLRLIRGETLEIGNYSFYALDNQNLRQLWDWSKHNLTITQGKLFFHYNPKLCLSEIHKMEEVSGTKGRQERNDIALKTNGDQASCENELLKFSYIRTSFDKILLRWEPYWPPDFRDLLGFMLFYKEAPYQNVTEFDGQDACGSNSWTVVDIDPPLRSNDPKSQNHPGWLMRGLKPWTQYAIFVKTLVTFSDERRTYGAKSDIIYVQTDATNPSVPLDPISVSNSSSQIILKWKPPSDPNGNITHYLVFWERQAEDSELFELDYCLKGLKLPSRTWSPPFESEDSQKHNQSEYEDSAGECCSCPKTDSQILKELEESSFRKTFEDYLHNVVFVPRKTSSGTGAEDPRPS
Sequence (P06213 763-1382 limits assumed): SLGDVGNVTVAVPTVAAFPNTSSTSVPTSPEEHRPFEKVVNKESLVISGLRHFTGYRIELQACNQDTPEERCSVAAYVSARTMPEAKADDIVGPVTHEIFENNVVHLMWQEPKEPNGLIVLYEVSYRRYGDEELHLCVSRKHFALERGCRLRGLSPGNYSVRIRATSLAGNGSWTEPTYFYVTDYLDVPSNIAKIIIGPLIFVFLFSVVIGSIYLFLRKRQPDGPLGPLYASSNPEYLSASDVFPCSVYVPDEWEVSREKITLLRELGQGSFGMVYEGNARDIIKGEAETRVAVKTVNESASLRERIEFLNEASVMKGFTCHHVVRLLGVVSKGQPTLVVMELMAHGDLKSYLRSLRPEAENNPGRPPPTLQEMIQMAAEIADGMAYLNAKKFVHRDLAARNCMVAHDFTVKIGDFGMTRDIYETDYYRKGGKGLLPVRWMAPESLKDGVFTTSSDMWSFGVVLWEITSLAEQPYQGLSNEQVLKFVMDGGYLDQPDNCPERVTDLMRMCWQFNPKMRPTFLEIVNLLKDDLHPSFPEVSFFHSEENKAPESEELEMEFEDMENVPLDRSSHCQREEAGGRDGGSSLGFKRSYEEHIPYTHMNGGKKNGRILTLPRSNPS
property: IC50

So for OCCn1cc(-c2cnc3nnn(Cc4ccc5ncccc5c4)c3n2)cn1 , the logged IC50 turned out to be > 10 µM

* * *

target: cGMP-inhibited 3',5'-cyclic phosphodiesterase 3A (Homo sapiens, UniProt Q14432); test: Selectivity interaction (CEREP ligand profiling ) EUB0000351a PDE3A
Sequence (Q14432 whole entry): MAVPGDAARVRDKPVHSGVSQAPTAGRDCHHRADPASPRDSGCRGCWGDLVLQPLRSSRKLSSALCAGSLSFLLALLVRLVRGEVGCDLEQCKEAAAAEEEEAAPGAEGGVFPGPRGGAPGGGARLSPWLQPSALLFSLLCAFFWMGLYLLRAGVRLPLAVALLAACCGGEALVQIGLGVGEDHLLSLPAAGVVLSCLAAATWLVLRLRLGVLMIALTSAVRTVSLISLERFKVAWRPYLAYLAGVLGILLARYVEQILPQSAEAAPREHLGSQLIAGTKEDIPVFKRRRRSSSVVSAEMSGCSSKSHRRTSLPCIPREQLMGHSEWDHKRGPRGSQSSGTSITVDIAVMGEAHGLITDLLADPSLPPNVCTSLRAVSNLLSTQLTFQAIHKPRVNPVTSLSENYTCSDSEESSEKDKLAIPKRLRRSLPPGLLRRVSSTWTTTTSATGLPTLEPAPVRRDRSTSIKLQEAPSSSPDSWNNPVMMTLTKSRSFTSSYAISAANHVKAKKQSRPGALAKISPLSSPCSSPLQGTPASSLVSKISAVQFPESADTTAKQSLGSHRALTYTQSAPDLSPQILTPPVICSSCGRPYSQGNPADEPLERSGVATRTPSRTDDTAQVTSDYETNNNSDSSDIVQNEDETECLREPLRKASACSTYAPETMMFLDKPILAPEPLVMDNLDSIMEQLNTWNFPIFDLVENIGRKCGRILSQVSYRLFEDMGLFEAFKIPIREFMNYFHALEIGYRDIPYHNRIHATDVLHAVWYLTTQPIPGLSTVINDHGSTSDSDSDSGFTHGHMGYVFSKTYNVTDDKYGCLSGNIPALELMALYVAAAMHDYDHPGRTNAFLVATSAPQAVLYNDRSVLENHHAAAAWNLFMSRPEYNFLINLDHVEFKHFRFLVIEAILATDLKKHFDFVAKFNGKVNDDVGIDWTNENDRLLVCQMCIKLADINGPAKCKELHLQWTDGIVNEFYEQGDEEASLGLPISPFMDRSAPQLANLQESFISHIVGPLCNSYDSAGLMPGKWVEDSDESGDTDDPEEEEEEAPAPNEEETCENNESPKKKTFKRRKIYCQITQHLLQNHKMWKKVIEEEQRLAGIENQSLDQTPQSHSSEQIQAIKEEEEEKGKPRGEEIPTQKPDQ
property: pIC50
Please report pIC50 as the negative decimal logarithm of the molar concentration, giving only the number.

Considering COc1ccc2cc(OCC3(C(=O)O)CN(C(=O)c4ccc(F)cc4)C3)ccc2c1 [PF-04418948] , its pIC50 with cGMP-inhibited 3',5'-cyclic phosphodiesterase 3A (Homo sapiens, UniProt Q14432) was recorded as 5.46

* * *

biological target: N-lysine methyltransferase SMYD2 (Homo sapiens); experiment: Selectivity interaction (Methyltransferase panel) EUB0000196bCl SMYD2
Sequence (Q9NRG4 whole entry): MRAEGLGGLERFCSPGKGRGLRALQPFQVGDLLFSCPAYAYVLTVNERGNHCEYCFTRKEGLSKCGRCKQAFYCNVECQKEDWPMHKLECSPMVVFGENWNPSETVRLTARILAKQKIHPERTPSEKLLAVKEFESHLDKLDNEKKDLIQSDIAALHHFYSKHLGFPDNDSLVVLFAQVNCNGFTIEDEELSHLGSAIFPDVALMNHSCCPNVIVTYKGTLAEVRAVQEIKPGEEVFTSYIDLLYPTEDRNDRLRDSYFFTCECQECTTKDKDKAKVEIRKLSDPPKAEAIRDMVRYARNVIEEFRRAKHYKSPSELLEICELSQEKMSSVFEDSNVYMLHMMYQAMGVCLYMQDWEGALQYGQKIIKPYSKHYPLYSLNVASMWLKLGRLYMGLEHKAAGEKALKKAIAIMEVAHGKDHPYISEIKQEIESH
property: EC50

Value of EC50 reported for the compound O=C([C@@H](Cc1cccc(C(F)(F)F)c1)NS(=O)(=O)c1cc(F)c2c(c1)CCNC2)N1CCCC1 is > 10 µM

* * *

target: UniProt P06239; assay: Selectivity interaction (ScanMAX (DiscoverX, competition-binding assay)) EUB0000232b LCK
Sequence (P06239 whole entry): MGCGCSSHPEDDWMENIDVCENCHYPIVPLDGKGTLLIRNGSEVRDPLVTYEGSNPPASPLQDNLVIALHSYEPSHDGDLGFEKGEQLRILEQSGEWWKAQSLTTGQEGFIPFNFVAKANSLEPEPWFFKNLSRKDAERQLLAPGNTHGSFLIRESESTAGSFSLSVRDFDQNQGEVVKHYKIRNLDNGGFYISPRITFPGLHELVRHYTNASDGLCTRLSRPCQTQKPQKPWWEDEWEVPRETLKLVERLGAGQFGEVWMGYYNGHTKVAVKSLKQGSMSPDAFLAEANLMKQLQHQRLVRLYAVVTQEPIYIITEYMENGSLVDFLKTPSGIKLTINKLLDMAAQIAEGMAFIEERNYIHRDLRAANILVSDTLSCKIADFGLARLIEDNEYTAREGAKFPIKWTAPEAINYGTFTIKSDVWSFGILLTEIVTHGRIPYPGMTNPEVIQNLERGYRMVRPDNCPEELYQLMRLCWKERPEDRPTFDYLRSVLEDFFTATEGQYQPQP
property: Kd

# compound CCCCN(Cc1ccccc1)C(=O)c1ccc(S(=O)(=O)Nc2ccccc2)cc1 ; its Kd = > 10 µM

* * *

molecular target: 5-hydroxytryptamine receptor 1A (Homo sapiens); assay: Selectivity interaction (GPCR panel (PDSP screen)) EUB0000705a HTR1A
Sequence (P08908 whole entry): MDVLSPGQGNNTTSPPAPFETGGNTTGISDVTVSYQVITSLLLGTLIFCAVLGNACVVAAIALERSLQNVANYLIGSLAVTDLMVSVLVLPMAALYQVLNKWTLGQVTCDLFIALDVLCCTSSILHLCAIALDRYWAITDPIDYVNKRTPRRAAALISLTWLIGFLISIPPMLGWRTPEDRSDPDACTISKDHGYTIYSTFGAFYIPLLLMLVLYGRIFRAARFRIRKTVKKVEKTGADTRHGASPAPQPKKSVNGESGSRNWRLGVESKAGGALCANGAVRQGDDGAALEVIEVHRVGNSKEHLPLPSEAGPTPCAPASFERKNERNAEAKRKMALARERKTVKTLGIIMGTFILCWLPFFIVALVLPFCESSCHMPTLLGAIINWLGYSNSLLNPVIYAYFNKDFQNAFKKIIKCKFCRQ
property: pKi
Keep it numeric: pKi is minus log10 of the concentration in mol/L.

Given the molecule CN1CCN(C(=O)C(C)(C)c2ccc(C(=O)Nc3cn4cc(-c5cc(C(C)(C)C)cc(C(C)(C)C)c5)ccc4n3)cc2)CC1 and test system 5-hydroxytryptamine receptor 1A (Homo sapiens), the measured pKi is 5.66

* * *

Molecular target: Serine/threonine-protein kinase BRSK2 (Homo sapiens, UniProt Q8IWQ3)
Sequence (Q8IWQ3 whole entry): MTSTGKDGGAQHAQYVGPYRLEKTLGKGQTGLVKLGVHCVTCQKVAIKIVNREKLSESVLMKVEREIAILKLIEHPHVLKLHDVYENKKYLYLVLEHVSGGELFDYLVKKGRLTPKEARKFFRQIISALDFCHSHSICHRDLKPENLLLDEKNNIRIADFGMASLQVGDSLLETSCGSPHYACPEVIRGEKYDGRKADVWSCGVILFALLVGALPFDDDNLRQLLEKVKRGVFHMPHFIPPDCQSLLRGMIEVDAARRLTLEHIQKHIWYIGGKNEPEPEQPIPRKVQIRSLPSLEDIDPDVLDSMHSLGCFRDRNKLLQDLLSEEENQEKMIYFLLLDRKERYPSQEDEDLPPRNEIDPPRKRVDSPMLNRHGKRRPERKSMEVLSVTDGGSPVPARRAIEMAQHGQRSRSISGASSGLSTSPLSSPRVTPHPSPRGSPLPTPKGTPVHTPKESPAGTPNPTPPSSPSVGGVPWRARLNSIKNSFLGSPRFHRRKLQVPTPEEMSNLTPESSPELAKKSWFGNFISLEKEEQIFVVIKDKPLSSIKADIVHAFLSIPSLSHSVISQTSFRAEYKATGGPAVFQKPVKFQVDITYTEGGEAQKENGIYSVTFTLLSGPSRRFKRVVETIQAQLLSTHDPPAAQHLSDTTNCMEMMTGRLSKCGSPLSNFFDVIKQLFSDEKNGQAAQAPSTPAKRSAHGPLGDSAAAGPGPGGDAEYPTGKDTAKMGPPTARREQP
Assay: Selectivity interaction (KinomeScan (DiscoverX, competition-binding assay)) EUB0000289c BRSK2
property: Kd

Query Cn1cncc1[C@](O)(COc1ccc(C#N)cc1-c1ccc(OC(F)(F)F)cc1)c1ccc(C#N)cc1 yields Kd of > 10 µM
